Test: AGP1-GFP expression modulators, hit retest, confirmation, cell-based, flow cytometry, S. cerevisiae, cherry picks (AID 2273);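 also: median GFP channel fluorescence over the whole cell population gate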
Details: S. cerevisiae AGP1-GFP strain, 3 h, at 10 µM
Entries and their GFP response, % of DMSO values follow.
State just the number; it will be interpreted in %.

| Compound | Unit Annotation | GFP response, % of DMSO |
| --- | --- | --- |
| CC(=O)Oc1ccc(N2C(=O)C3C4C=CC(CO)(O4)C3C2=O)cc1 (stereo not given) | % | 101 |
| Cc1[nH][nH]c(=O)c1C(c1ccc(-c2ccc(Cl)c(Cl)c2)o1)c1c(C)[nH][nH]c1=O | % | 115 |

Prompt line: What value of GFP response, % of DMSO has been recorded for this entry: CCc1cccc(C)c1NC(=O)CC1Oc2ccc(C)cc2NC1=O (stereo not given)
Response line: 101

Prompt line: What GFP response, % of DMSO value was documented for this compound, COc1ccc(-c2cc(C(F)(F)F)nc(N3CCOCC3)n2)cc1OC ?
Response line: 99.5

Prompt line: Could you share which GFP response, % of DMSO value was measured for O=C(Oc1oc(-c2ccco2)nc1C=Nc1ccccc1)c1ccoc1 ?
Response line: 98.2

Prompt line: I would be grateful if you could share the reported GFP response, % of DMSO for Cc1cccc(N2C(=O)CC(Sc3nc(C)c4c(n3)CCCC4)C2=O)c1 (stereo not given) .
Response line: 95

Prompt line: # get_value(readout='GFP response, % of DMSO', item= CCN(CC)Cc1c(O)ccc2c(C)c(CC(=O)OC)c(=O)oc12 )
Response line: 106

Prompt line: Item under review: Fc1ccc(/C=N/Nc2nc(-c3cccnc3)nc3ccccc23)cc1 . Reported GFP response, % of DMSO?
Response line: 94.6

Prompt line: # get_value(readout='GFP response, % of DMSO', item= O=C(O)Cc1sc(Nc2ccccc2)nc1-c1cccs1 )
Response line: 99.7

Prompt line: What value of GFP response, % of DMSO has been reported for the following compound? C/C(=N/NS(=O)(=O)c1ccccc1)c1ccc(NC(=O)C(F)(F)F)cc1
Response line: 91

Prompt line: Fill blank: measured GFP response, % of DMSO of the compound Cc1ccc(/C=C/c2ccc(N(C)C)cc2)[n+](C)c1 is ____.
Response line: 103

Prompt line: What value of GFP response, % of DMSO has been recorded for this entry: CC(C)Oc1ccc(C(=O)/C=C2/C(=O)Nc3ccccc32)cc1
Response line: 123

Prompt line: # get_value(readout='GFP response, % of DMSO', item= O=C(/C=C/c1ccc(F)cc1)c1ccccc1Br )
Response line: 98.1

Origin of the recorded values: PubChem BioAssay
